// data source = patent US20190241669A1

Molecular target: Human BCMA (human) (UniProt Q02223)
Assay: SPR, IgG immobilised, huBCMA analyte, 37 C
Please go through the items and note down their koff.
Just the number plus its unit, please.

Ask | So what's the measured koff for this one? L3.PY/L1.AH/H3.TAQ (antibody, V domains shown, IgG) VH: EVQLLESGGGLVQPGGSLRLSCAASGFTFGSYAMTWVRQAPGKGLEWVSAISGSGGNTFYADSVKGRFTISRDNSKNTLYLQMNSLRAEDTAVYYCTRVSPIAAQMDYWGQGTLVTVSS VL: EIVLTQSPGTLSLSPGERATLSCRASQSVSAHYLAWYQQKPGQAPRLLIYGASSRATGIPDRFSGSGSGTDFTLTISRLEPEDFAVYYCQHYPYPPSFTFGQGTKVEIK
Reply | 0.00119 s⁻¹

Ask | Please give the result for L3.PY/L1.FF/H3.YA (antibody, V domains shown, IgG) VH: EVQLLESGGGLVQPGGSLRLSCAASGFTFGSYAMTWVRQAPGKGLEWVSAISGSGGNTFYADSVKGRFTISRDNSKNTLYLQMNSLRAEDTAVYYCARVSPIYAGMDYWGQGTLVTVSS VL: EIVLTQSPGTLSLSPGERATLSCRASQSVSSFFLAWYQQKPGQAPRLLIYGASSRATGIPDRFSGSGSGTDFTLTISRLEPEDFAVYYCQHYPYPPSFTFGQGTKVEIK too.
Reply | 0.0018 s⁻¹

Ask | Please give the result for L3.PY/L3.KF/H2.DY (antibody, V domains shown, IgG) VH: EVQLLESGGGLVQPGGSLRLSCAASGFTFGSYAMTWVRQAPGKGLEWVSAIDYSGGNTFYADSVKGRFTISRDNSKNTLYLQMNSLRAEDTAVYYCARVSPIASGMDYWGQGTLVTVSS VL: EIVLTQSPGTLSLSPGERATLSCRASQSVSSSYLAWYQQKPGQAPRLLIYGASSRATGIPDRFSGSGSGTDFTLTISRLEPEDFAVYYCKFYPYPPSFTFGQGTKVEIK too.
Reply | 0.00182 s⁻¹

Ask | Please give the result for L3.PY/L1.FF/H2.HA (antibody, V domains shown, IgG) VH: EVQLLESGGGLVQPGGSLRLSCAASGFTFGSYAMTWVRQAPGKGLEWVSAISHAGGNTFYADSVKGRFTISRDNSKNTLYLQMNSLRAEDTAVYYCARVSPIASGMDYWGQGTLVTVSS VL: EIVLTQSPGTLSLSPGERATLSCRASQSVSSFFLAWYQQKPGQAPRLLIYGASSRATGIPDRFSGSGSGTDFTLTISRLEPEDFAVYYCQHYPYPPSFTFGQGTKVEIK too.
Reply | 0.00219 s⁻¹

Ask | Please give the result for L3.PY/L3.KF/H3.AE (antibody, V domains shown, IgG) VH: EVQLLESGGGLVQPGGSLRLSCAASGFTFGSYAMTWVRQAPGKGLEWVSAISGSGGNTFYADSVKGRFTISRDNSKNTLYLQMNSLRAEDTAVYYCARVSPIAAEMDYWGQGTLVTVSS VL: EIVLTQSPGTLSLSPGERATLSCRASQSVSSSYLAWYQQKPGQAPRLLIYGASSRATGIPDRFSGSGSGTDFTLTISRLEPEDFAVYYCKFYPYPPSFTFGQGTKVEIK too.
Reply | 0.00155 s⁻¹

Ask | Please give the result for L3.PY/L1.PH/H3.AE (antibody, V domains shown, IgG) VH: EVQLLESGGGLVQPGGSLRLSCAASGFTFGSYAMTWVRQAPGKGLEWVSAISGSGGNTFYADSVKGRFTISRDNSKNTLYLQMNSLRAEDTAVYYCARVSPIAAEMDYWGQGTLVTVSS VL: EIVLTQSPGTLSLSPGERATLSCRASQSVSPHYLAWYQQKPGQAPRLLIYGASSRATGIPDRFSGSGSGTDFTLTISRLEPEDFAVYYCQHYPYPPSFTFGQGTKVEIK too.
Reply | 0.00134 s⁻¹

Ask | Please give the result for L3.PY/L1.FF/H2.DY (antibody, V domains shown, IgG) VH: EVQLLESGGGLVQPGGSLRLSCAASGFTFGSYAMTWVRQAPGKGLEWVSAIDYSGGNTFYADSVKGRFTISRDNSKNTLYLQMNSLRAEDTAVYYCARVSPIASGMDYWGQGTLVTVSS VL: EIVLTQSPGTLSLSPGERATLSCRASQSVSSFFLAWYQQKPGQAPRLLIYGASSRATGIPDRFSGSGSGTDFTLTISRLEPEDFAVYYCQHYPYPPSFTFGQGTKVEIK too.
Reply | 0.00271 s⁻¹

Ask | Please give the result for L3.PY/L3.KY/H2.DY (antibody, V domains shown, IgG) VH: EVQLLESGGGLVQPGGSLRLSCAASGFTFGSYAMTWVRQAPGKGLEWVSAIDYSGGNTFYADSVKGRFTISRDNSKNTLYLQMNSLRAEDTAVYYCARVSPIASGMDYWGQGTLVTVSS VL: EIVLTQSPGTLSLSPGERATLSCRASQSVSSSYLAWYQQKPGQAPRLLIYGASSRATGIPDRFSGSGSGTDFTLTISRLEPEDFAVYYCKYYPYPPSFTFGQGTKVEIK too.
Reply | 0.000642 s⁻¹

Ask | Please give the result for L3.PY/L1.PH/H2.QR (antibody, V domains shown, IgG) VH: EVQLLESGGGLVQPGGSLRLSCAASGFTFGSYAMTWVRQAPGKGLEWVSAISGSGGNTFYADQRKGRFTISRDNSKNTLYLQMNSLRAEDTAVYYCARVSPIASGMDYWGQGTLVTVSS VL: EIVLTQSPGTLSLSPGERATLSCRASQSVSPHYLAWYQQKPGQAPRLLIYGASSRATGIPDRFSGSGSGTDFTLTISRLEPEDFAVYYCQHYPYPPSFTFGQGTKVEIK too.
Reply | 0.00236 s⁻¹

Ask | Please give the result for L3.PY/L3.KF/H3.AQ (antibody, V domains shown, IgG) VH: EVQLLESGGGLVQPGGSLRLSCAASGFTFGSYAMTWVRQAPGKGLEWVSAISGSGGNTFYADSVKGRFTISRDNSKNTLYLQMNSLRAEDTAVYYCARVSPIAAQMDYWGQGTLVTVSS VL: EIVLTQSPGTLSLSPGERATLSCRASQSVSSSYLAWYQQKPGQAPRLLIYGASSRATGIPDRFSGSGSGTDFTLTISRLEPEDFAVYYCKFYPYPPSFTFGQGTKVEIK too.
Reply | 0.00227 s⁻¹
